conditionDescription: siRNA; also: test system not given here
HELM strings list units from the 5' end as sugar, base in round brackets, then linkage (d deoxyribose, r ribose, m 2'-O-methyl, p phosphodiester). Strings are as the collection lists them, not checked against the first reports. ss, as = sense and antisense strand
Reported target mRNA knockdown values for a set of substances
Give the quantity in %, number only.

substance	valueUnit	target mRNA knockdown
RNA1{r(C)p.r(U)p.r(C)p.r(C)p.r(C)p.r(C)p.r(A)p.r(G)p.r(U)p.r(C)p.r(U)p.r(C)p.r(U)p.r(C)p.r(U)p.r(U)p.m(A)p.r(A)p.r(A)p.r(T)p.r(T)}|RNA2{r(U)p.r(U)p.r(U)p.m(A)p.r(A)p.r(G)p.r(A)p.r(G)p.r(A)p.r(G)p.r(A)p.r(C)p.r(U)p.r(G)p.r(G)p.r(G)p.r(G)p.r(A)p.r(G)p.r(T)p.r(T)}$$$RNA1{StrandType:ss}|RNA2{StrandType:as}$	%	69
RNA1{r(A)p.m(C)p.m(A)p.r(G)p.r(A)p.r(A)p.r(A)p.r(G)p.m(A)p.r(G)p.r(U)p.r(U)p.r(C)p.r(G)p.r(A)p.r(G)p.r(G)p.r(A)p.r(G)p.r(T)p.r(T)}|RNA2{r(C)p.r(U)p.r(C)p.r(C)p.r(U)p.r(C)p.r(G)p.r(A)p.r(A)p.r(C)p.r(U)p.r(C)p.r(U)p.r(U)p.r(U)p.r(C)p.m(U)p.r(G)p.r(U)p.r(T)p.r(T)}$$$RNA1{StrandType:ss}|RNA2{StrandType:as}$	%	61

# ---- query substance ----
Could you tell me which target mRNA knockdown is on file for "RNA1{r(A)p.r(G)p.r(A)p.r(G)p.r(U)p.r(U)p.r(G)p.r(G)p.r(G)p.r(A)p.r(U)p.r(U)p.r(A)p.r(G)p.r(G)p.r(G)p.r(C)p.r(U)p.r(U)p.r(T)p.r(T)}|RNA2{m(A)p.r(A)p.m(G)p.r(C)p.m(C)p.r(C)p.m(U)p.r(A)p.m(A)p.r(U)p.m(C)p.r(C)p.m(C)p.r(A)p.m(A)p.r(C)p.m(U)p.r(C)p.m(U)p.r(T)p.r(T)}$$$RNA1{StrandType:ss}|RNA2{StrandType:as}$" ?
45

====

conditionDescription: siRNA
HELM strings list units from the 5' end as sugar, base in round brackets, then linkage (d deoxyribose, r ribose, m 2'-O-methyl, p phosphodiester). Strings are as the collection lists them, not checked against the first reports. ss, as = sense and antisense strand; [s4r] = 4'-thioribose
Reported target mRNA knockdown values for a set of substances
Give the quantity in %, number only.

substance	target mRNA knockdown, %
RNA1{m(G)p.r(A)p.m(A)p.r(A)p.m(A)p.r(C)p.m(G)p.r(C)p.m(U)p.r(U)p.m(G)p.r(U)p.m(A)p.r(A)p.m(A)p.r(G)p.m(C)p.r(C)p.m(G)p.r(T)p.r(T)}|RNA2{r(C)p.r(G)p.r(G)p.r(C)p.r(U)p.r(U)p.r(U)p.m(A)p.r(C)p.m(A)p.m(A)p.r(G)p.r(C)p.r(G)p.r(U)p.r(U)p.r(U)p.r(U)p.r(C)p.r(T)p.r(T)}$$$RNA1{StrandType:ss}|RNA2{StrandType:as}$	23

# ---- query substance ----
Could you tell me which target mRNA knockdown is on file for "RNA1{r(C)p.r(G)p.r(U)p.r(A)p.r(C)p.r(G)p.r(C)p.r(G)p.r(G)p.r(A)p.r(A)p.r(U)p.r(A)p.r(C)p.r(U)p.r(U)p.r(C)p.r(G)p.r(A)p.r(T)p.r(T)}|RNA2{[s4r](U)p.[s4r](C)p.[s4r](G)p.[s4r](A)p.[s4r](A)p.[s4r](G)p.r(U)p.r(A)p.r(U)p.r(U)p.r(C)p.r(C)p.r(G)p.[s4r](C)p.[s4r](G)p.[s4r](U)p.[s4r](A)p.[s4r](C)p.[s4r](G)p.r(T)p.r(T)}$$$RNA1{StrandType:ss}|RNA2{StrandType:as}$" ?
22.8
